# credit: the supplement of paper PMC4862054

Quick list: normalised viability per entry.
System: HCC1599
MEASUREMENT DESCRIPTION: normalised viability (% of control), CellTiter-Blue; higher = more viable cells (about 100 = DMSO control)
EXPERIMENTAL CONDITIONS: 100 nM; incubation time: 72 h
EXPERIMENTAL ENDPOINT: normalised viability

• CC1(C)NC(=O)N(c2ccc([N+](=O)[O-])c(C(F)(F)F)c2)C1=O [Nilutamide] = 95.5%
• Cc1ccc(-n2nc(C(C)(C)C)cc2NC(=O)Nc2ccc(OCCN3CCOCC3)c3ccccc23)cc1 = 90.9%
• CC(C)Cn1cnc2c(N)nc3ccccc3c21 = 103%
• CCC1(c2ccc(N)cc2)CCC(=O)NC1=O (stereo not given) [Aminoglutethimide] = 104%
• Cn1c(CCCC(=O)O)nc2cc(N(CCCl)CCCl)ccc21 = 105%

----------
Tested on: CAL-120
MEASUREMENT DESCRIPTION: normalised response (% of control), CellTiter-Glo; higher = more viable cells (100 = DMSO, 0 = benzethonium chloride kill control)
EXPERIMENTAL CONDITIONS: incubation time: 72 h
EXPERIMENTAL ENDPOINT: normalised response (%)

* CCC(C)(C)C(=O)O[C@H]1C[C@@H](C)C=C2C=C[C@H](C)[C@H](CC[C@@H]3C[C@@H](O)CC(=O)O3)[C@H]21 [Simvastatin] (1 nM) | 100
* CN[C@@H]1C[C@H]2O[C@@](C)([C@@H]1OC)n1c3ccccc3c3c4c(c5c6ccccc6n2c5c31)C(=O)N[C@H]4O [UCN-01] (1000 nM) | 20.5
* C[C@]12CC[C@@H]3c4ccc(O)cc4C[C@@H](CCCCCCCCC[S+]([O-])CCCC(F)(F)C(F)(F)F)[C@H]3[C@@H]1CC[C@@H]2O (stereo partly specified) [Fulvestrant] (1 nM) | 97.4
* O=P1(NCCCl)OCCCN1CCCl (stereo unspecified) [Ifosfamide] (1 nM) | 92.2
* Cc1ccc(-n2nc(C(C)(C)C)cc2NC(=O)Nc2ccc(OCCN3CCOCC3)c3ccccc23)cc1 [Doramapimod] (10 nM) | 94.5
* C[C@@H](Oc1cc(-c2cnn(C3CCNCC3)c2)cnc1N)c1c(Cl)ccc(F)c1Cl [Crizotinib] (100 nM) | 100
* CN(N=O)C(=O)N[C@@H](C=O)[C@@H](O)[C@H](O)[C@H](O)CO [Streptozocin] (1 nM) | 103
* N.N.[Cl][Pt][Cl] [Cisplatin] (100 nM) | 101
* CS(=O)(=O)c1ccc(C2=C(c3ccccc3)C(=O)OC2)cc1 [Rofecoxib] (1000 nM) | 103
* O=C(O)c1ccc(-c2c[nH]c3ncc(-c4ccccc4)cc23)cc1C1CCCC1 (1000 nM) | 102
* C=C(c1ccc(C(=O)O)cc1)c1cc2c(cc1C)C(C)(C)CCC2(C)C [Bexarotene] (1 nM) | 99.6
* Cn1c(CCCC(=O)O)nc2cc(N(CCCl)CCCl)ccc21 [Bendamustine] (1000 nM) | 104
* CNCc1ccc(-c2[nH]c3cc(F)cc4c3c2CCNC4=O)cc1 [Rucaparib] (1 nM) | 96.3
* N.N.[Cl][Pt][Cl] [Cisplatin] (0.1 nM) | 102
* Cc1ccc(C(=O)Nc2ccc(CN3CCN(C)CC3)c(C(F)(F)F)c2)cc1C#Cc1cnc2cccnn12 [Ponatinib] (0.1 nM) | 103
* Cn1c(CCCC(=O)O)nc2cc(N(CCCl)CCCl)ccc21 [Bendamustine] (10 nM) | 107

----------
Quick list: normalised response per entry.
Tested on: MDA-MB-453
MEASUREMENT DESCRIPTION: normalised response (% of control), CellTiter-Glo; higher = more viable cells (100 = DMSO, 0 = benzethonium chloride kill control)
EXPERIMENTAL CONDITIONS: incubation time: 72 h
EXPERIMENTAL ENDPOINT: normalised response (%)

• N[C@@H](CSC(c1ccccc1)(c1ccccc1)c1ccccc1)C(=O)O [S-trityl-L-cysteine] (4 nM) = 107
• N#CCNC(=O)c1ccc(-c2ccnc(Nc3ccc(N4CCOCC4)cc3)n2)cc1 [Momelotinib] (10 nM) = 89.5
• N.N.[Cl][Pt][Cl] [Cisplatin] (100 nM) = 94.9
• O=P1(NCCCl)OCCCN1CCCl (stereo unspecified) [Ifosfamide] (1000 nM) = 92.5
• C[C@@H](Oc1cc(-c2cnn(C3CCNCC3)c2)cnc1N)c1c(Cl)ccc(F)c1Cl [Crizotinib] (1 nM) = 100
• Cc1ccc(C(=O)Nc2ccc(CN3CCN(C)CC3)c(C(F)(F)F)c2)cc1C#Cc1cnc2cccnn12 [Ponatinib] (100 nM) = 110
• C[C@]12CC[C@@H]3c4ccc(O)cc4C[C@@H](CCCCCCCCC[S+]([O-])CCCC(F)(F)C(F)(F)F)[C@H]3[C@@H]1CC[C@@H]2O (stereo partly specified) [Fulvestrant] (1 nM) = 112
• N.N.[Cl][Pt][Cl] [Cisplatin] (1 nM) = 99.3
• O=C1CCC(N2C(=O)c3ccccc3C2=O)C(=O)N1 (stereo unspecified) [Thalidomide] (1 nM) = 96.6
• C[C@@H](Oc1cc(-c2cnn(C3CCNCC3)c2)cnc1N)c1c(Cl)ccc(F)c1Cl [Crizotinib] (0.1 nM) = 111
• CC(C)Cn1cnc2c(N)nc3ccccc3c21 [Imiquimod] (2.5 nM) = 104
• C#Cc1cccc(Nc2ncnc3cc(OCCOC)c(OCCOC)cc23)c1 [Erlotinib] (1000 nM) = 107
• CCC1=C[C@@H]2CN(C1)Cc1c([nH]c3ccccc13)[C@@](C(=O)OC)(c1cc3c(cc1OC)N(C)[C@H]1[C@@](O)(C(=O)OC)[C@H](OC(C)=O)[C@]4(CC)C=CCN5CC[C@]31[C@@H]54)C2 [Vinorelbine] (1000 nM) = 56.1
• COc1cc2nccc(Oc3ccc(NC(=O)C4(C(=O)Nc5ccc(F)cc5)CC4)cc3)c2cc1OC [Cabozantinib] (1 nM) = 105
• NC(=O)Nc1cc(-c2cccc(F)c2)sc1C(=O)N[C@H]1CCCNC1 [AZD7762] (0.1 nM) = 99.9
• CS(=O)(=O)c1ccc(C2=C(c3ccccc3)C(=O)OC2)cc1 [Rofecoxib] (10 nM) = 110

----------
Test system: Hs578T
MEASUREMENT DESCRIPTION: normalised viability (% of control), CellTiter-Blue; higher = more viable cells (about 100 = DMSO control)
EXPERIMENTAL CONDITIONS: 100 nM; incubation time: 72 h
EXPERIMENTAL ENDPOINT: normalised viability (%)

- N.N.[Cl][Pt][Cl] [Cisplatin]: 106
- COc1cc([C@@H]2c3cc4c(cc3[C@@H](O[C@@H]3O[C@@H]5CO[C@@H](C)O[C@H]5[C@H](O)[C@H]3O)[C@H]3COC(=O)[C@H]23)OCO4)cc(OC)c1O [Etoposide]: 84.3
- CN[C@@H]1C[C@H]2O[C@@](C)([C@@H]1OC)n1c3ccccc3c3c4c(c5c6ccccc6n2c5c31)C(=O)N[C@H]4O: 14.4
- Cc1ccc(-n2nc(C(C)(C)C)cc2NC(=O)Nc2ccc(OCCN3CCOCC3)c3ccccc23)cc1: 78
- Cn1c(CCCC(=O)O)nc2cc(N(CCCl)CCCl)ccc21: 83.7
- CN(N=O)C(=O)N[C@@H](C=O)[C@@H](O)[C@H](O)[C@H](O)CO: 102
- CCC1(c2ccc(N)cc2)CCC(=O)NC1=O (configuration not stated) [Aminoglutethimide]: 80.6

----------
Quick list: normalised viability per entry.
System: HCC1143
MEASUREMENT DESCRIPTION: normalised viability (% of control), CellTiter-Blue; higher = more viable cells (about 100 = DMSO control)
EXPERIMENTAL CONDITIONS: 10 nM; incubation time: 72 h
EXPERIMENTAL ENDPOINT: normalised viability

* COc1cc2nccc(Oc3ccc(NC(=O)C4(C(=O)Nc5ccc(F)cc5)CC4)cc3)c2cc1OC [Cabozantinib] | 81.3%
* Cc1ccc(C(=O)Nc2ccc(CN3CCN(C)CC3)c(C(F)(F)F)c2)cc1C#Cc1cnc2cccnn12 | 100%
* Cn1c(Nc2ccc(C(F)(F)F)cc2)nc2cc(Oc3ccnc(-c4ncc(C(F)(F)F)[nH]4)c3)ccc21 | 77.8%
* CO[C@H]1/C=C\C=C(/C)C(=O)NC2=CC(=O)C(NCCN(C)C)=C(C[C@@H](C)C[C@H](OC)[C@H](O)[C@@H](C)/C=C(\C)[C@@H]1OC(N)=O)C2=O | 86.1%

----------
Test system: HDQ-P1
MEASUREMENT DESCRIPTION: normalised viability (% of control), CellTiter-Blue; higher = more viable cells (about 100 = DMSO control)
EXPERIMENTAL CONDITIONS: 30 nM; incubation time: 72 h
Quick list: normalised viability per entry.
EXPERIMENTAL ENDPOINT: normalised viability (%)

• O=C1CCC(N2C(=O)c3ccccc3C2=O)C(=O)N1 (stereo not given) [Thalidomide] = 101
• CCC1(c2ccc(N)cc2)CCC(=O)NC1=O (stereo not given) [Aminoglutethimide] = 99.2
• CC(C)Cn1cnc2c(N)nc3ccccc3c21 [Imiquimod] = 92
• C[C@@H](Oc1cc(-c2cnn(C3CCNCC3)c2)cnc1N)c1c(Cl)ccc(F)c1Cl [Crizotinib] = 91.3
• CNCc1ccc(-c2[nH]c3cc(F)cc4c3c2CCNC4=O)cc1 [Rucaparib] = 88
